These entries and their values trace back to paper PMC12214158.

Below are molecules with their Ki as measured on human PD-L1 (Homo sapiens, UniProt Q9NZQ7).
Sequence (Q9NZQ7 19-290): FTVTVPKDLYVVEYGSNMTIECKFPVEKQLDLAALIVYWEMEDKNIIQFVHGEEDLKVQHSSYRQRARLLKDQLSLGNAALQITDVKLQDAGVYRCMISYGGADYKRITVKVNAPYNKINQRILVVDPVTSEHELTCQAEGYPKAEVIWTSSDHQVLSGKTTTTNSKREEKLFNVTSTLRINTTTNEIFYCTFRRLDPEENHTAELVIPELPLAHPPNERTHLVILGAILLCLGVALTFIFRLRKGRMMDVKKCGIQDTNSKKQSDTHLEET
readout.name: Ki (nM)

molecule	tested.target	experimental.result
Cc1c(COc2cc(OCc3cncc(S(C)(=O)=O)c3)c(CN(C)C(=O)[C@H](CS(=O)(=O)O)NC(=O)[C@H](CS(=O)(=O)O)NC(=O)CCP(=O)(O)O)cc2Cl)cccc1-c1cccc(OCc2cn(CCOCCOCC[18F])nn2)c1C [[^18F]F-3]	human PD-L1 (Homo sapiens, UniProt Q9NZQ7)	475
Cc1c(COc2cc(OCc3cncc(S(C)(=O)=O)c3)c(CN(C)C(=O)[C@H](CS(=O)(=O)O)NC(=O)[C@H](CS(=O)(=O)O)NC(=O)CCP(=O)(O)O)cc2Cl)cccc1-c1cccc(OCc2cn([C@@H]3O[C@H](CF)[C@@H](O)[C@H](O)[C@H]3O)nn2)c1C	human PD-L1 (Homo sapiens, UniProt Q9NZQ7)	189
Cc1c(COc2cc(OCc3cncc(S(C)(=O)=O)c3)c(CN(C)C(=O)[C@H](CS(=O)(=O)O)NC(=O)[C@H](CS(=O)(=O)O)NC(=O)CCP(=O)(O)O)cc2Cl)cccc1-c1cccc(OCc2cn([C@@H]3O[C@H](C[18F])[C@@H](O)[C@H](O)[C@H]3O)nn2)c1C [[^18F]F-2]	human PD-L1 (Homo sapiens, UniProt Q9NZQ7)	189
Cc1c(COc2cc(OCc3cncc(S(C)(=O)=O)c3)c(CN(C)C(=O)[C@H](CS(=O)(=O)O)NC(=O)[C@H](CS(=O)(=O)O)NC(=O)CCP(=O)(O)O)cc2Cl)cccc1-c1cccc(OCc2cn(CCOCCOCCF)nn2)c1C	human PD-L1 (Homo sapiens, UniProt Q9NZQ7)	475
